tested-system: Rho-associated protein kinase 1 (Homo sapiens)
experimental-setup: at 1 µM
experimental-endpoint: residual activity (%)
Numbers only, in %.

Provide the reported residual activity of each entry below, same order.
1. O=C1c2ccccc2-c2nc3nnnn3nc21
2. CC(C)(C)c1cc(C=C(C#N)C#N)cc(Br)c1O
3. COc1ccc2c(c[n+](C)c3c4cc5c(cc4ccc23)OCO5)c1OC

112
102
110

* * *

tested-system: Focal adhesion kinase 1 (Homo sapiens) (UniProt Q05397)
Sequence (Q05397 2-1052 limits assumed): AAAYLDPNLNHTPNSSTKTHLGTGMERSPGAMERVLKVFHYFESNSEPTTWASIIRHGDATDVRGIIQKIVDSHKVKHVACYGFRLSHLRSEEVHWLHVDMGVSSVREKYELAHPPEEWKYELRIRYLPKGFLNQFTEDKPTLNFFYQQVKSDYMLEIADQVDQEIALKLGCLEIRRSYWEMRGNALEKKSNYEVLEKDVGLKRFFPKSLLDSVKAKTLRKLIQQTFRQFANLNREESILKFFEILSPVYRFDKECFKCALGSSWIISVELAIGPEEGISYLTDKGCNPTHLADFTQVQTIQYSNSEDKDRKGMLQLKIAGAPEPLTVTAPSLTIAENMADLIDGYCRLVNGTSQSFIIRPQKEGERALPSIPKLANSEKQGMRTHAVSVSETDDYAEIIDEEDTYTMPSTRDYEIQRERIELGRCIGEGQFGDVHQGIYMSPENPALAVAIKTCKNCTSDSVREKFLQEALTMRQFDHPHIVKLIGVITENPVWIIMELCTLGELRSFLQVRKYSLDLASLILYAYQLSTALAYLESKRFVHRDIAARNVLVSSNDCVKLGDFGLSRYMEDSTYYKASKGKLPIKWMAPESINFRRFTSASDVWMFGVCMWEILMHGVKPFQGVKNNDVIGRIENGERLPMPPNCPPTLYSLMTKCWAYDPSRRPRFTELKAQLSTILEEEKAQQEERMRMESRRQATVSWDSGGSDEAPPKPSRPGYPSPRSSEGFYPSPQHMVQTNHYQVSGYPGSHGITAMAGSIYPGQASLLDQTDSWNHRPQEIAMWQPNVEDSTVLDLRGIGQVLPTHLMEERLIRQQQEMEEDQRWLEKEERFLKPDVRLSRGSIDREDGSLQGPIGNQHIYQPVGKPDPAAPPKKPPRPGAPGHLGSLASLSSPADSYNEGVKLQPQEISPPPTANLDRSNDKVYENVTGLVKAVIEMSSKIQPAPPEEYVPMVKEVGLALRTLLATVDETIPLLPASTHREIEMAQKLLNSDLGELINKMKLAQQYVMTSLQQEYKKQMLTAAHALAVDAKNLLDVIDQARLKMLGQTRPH
experimental-setup: at 1 µM
What residual activity was measured for each of the following?
Numbers only, in %.

Example cases with answers are listed next.
>  <record-smiles>
O=[N+]([O-])/C=C/c1ccc2c(c1)OCO2

>  <units-text>
%

>  <residual activity>
141

$$$$
>  <record-smiles>
COc1ccc2c(c1)/C(=C/c1cnc[nH]1)C(=O)N2

>  <units-text>
%

>  <residual activity>
99

$$$$

Provide the reported residual activity of each entry below, same order.
1. CC(C)[C@H](CO)Nc1nc(Nc2cccc(Cl)c2)c2ncn(C(C)C)c2n1
2. O=c1[nH]c2ccccc2n1C1CCN(Cc2ccc(-c3nc4cc5[nH]cnc5cc4nc3-c3ccccc3)cc2)CC1

[65, 143]
